Quick reference for Amplitude R0 among some binders
- ASSAYED_SYSTEM: T1, human Gal10-His (human, UniProt Q05315 2-142, limits assumed)
- T1 construct: also called hGal10-His; human Gal10-His tagged; not shown: His tag
- T1 sequence: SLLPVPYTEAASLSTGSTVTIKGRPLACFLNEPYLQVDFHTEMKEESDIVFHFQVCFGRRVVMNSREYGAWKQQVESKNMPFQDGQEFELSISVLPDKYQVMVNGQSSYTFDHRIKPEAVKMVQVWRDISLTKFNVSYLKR
- EXPERIMENT: SPR Biacore 3000, hFab on human Gal10-His captured by anti-His CM5
- Method: The binding properties of the selected clones to human and cynomolgus Gal10 was analyzed via a capture method established on a Biacore 3000 instrument. For this purpose, two approaches were used. In the first, two concentrations of the selected clones were applied on cynomolgus (WGS isoform) Gal10-His capture on a CM5 chip coated with a monoclonal anti-His antibody. The second approach involved a serial dilution that was applied on human or cynomolgus (WGS isoform) Gal10-His in the same set-up.
Report only the number, with the unit RU understood.

Some binders with recorded Amplitude R0:
- BINDER: "g24F02_N53A (human Fab) (Fab, V domains shown, Human Fab backbone: human CH1 and human lambda constant domain (pUPEX vectors); also called g24F02_N53A_2W) VH: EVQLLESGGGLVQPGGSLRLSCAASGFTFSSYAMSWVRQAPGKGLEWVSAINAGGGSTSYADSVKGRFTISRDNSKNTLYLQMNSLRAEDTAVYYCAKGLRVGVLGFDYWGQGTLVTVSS VL: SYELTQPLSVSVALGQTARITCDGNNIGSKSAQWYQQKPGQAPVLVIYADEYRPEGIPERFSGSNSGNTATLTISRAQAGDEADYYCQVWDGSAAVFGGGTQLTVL"
  UNITS_TEXT: "RU"
  Amplitude R0: 647
- BINDER: "g23H09 (Fab) (Fab, V domains shown, same VH/VL) VH: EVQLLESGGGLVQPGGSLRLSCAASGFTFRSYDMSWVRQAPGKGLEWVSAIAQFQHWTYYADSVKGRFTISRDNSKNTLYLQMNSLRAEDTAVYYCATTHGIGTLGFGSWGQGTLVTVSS VL: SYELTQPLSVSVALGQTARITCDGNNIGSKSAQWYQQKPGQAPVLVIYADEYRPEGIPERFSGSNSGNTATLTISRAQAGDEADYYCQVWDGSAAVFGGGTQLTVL"
  UNITS_TEXT: "RU"
  Amplitude R0: 722
- BINDER: "g24F02 (human Fab) (Fab, V domains shown, Human Fab backbone (human CH1, human lambda CL); also called germlined 24F02) VH: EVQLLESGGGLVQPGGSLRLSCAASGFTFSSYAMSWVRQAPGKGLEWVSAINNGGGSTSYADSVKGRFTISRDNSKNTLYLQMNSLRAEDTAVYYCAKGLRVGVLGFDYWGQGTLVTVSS VL: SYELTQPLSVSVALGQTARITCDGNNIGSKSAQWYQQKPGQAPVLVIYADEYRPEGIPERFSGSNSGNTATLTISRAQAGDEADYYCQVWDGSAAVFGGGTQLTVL"
  UNITS_TEXT: "RU"
  Amplitude R0: 644
- BINDER: "g7B07 (human Fab) (Fab, V domains shown, Human Fab backbone; their format is not certain; also called g7B07-hFab; germlined 7B07) VH: EVQLLESGGGLVQPGGSLRLSCAASGFTFRSYDMSWVRQAPGKGLEWVSAIKNGGGITYYADSVKGRFTISRDNSKNTLYLQMNSLRAEDTAVYYCATTHGIGTLGFGSWGQGTLVTVSS VL: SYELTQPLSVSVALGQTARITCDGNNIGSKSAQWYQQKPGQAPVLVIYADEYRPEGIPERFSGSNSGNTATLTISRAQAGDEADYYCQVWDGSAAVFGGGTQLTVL"
  UNITS_TEXT: "RU"
  Amplitude R0: 607

Please look at the following binder next.
I have this binder here, g7B07_N53A (human Fab) (Fab, V domains shown, VH assembled by inference as for g7B07; Human Fab backbone; also called g7B07_N53A (mean)) VH: EVQLLESGGGLVQPGGSLRLSCAASGFTFRSYDMSWVRQAPGKGLEWVSAIKAGGGITYYADSVKGRFTISRDNSKNTLYLQMNSLRAEDTAVYYCATTHGIGTLGFGSWGQGTLVTVSS VL: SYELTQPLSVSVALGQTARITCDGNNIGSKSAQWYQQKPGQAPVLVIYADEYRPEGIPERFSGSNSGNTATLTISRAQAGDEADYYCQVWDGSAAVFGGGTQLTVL , and I need its recorded Amplitude R0.
119
